TARGET_UNDER_TEST: T1, Fc
T1 construct: domain: Fc
METHOD: phage ELISA, Fc coated
Procedure: Colonies obtained from a group of the polyclonal phage antibodies having high binding capacity were cultured at a temperature of 37° C. for 16 hours in a 96-deep well plate (Bioneer 90030) containing 1 ml of a medium supplemented with 2×YTCM, 2% glucose, and 5 mM MgCl₂. […] Each well was washed with […] of PBS-Tween 20, colorimetrically developed, and then measured for optical density at 490 nm.
Reported OD490 values are given for each entry in this list.
Could you give me the number in OD? Just the number is fine.

Some entries whose results are on file:
BINDER | RESULT_UNIT | OD490
ACVR2B C08 (monoclonal scFv-phage) (scFv, V domains shown, also called C8) VH: VQLVESGGGLVQPGGSLRLSCSASGFTFSSYAMHWVRQAPGKGLEYVSAISSNGGSTYYADSVKGRFTISRDNSKNTLYLQMNSLRAEDTAVYYCAKTYGGYGNAFDIWGQGTMITVSS VL: DIQMTQSPSSVSASVGDRVTITCRASQGISRWLAWYQQKPGKAPKLLIYAASNLQSGVPSRFSGSGSGTDFTLTINSLQPEDFATYFCQQGKSFPYTFGPGTKVEIK | OD | 0.0721
ACVR2B D07 (monoclonal scFv-phage) (scFv, V domains shown, also called D7) VH: QVQLVQSGAEVKKPGASVKVSCKASGYTFTSYYMHWVRQAPGQGLEWMGIINPSGGSTSYAQKFQGRVTMTRDTSTSTVYMELSSLRSEDTAVYYCAKDQSRGWYSNFDSWGQGTLVTVSS VL: DIQMTQSPSTLSASVGDRVTITCRASQTVSNWLAWYQLKPGKAPKLLIYKASSLESGVPSRFSGTGSETEFTLTISSLQPDDFATYYCQQYHSYPITFGQGTRLEIK | OD | 0.0428
ACVR2B C07 (monoclonal scFv-phage) (scFv, V domains shown, also called C7) VH: QMQLVQSGGGLVKPGGSLRLSCAPSGFTFRDYHMSWIRQAPGKGLEWISNISNSGTNIYYADSVKGRFTISRDNAKNSLYLQMNSLRAEDTAVYYCARGHYGMDIWGQGTTITVSS VL: DIQMTQSPSSLSASVGDRVTITCRASQGIANYLAWYQQKPGKAPKLLIYAASTLQSGVPSRFSGSGSGTDFTLTISSLQPEDFATYYCQQVKSYPLSFGGGTKVEIK | OD | 0.0435
ACVR2B B11 (monoclonal scFv-phage) (scFv, V domains shown) VH: VQLVESGGGLVQPGRSLRLSCAASGFTFDNHAMHWVRRAPGKGLEWVSGISWNGGTTAYADSVKGRFSIFRDNAEKSLYLQMNSLRAEDTAVYYCARGSSSGRYYFDYWGQGTLVTVSS VL: DIQMTQSPSSVSASVGDRVTITCRASQGISTYLNWYQHQSGKAPKLLIYGAFRLQSGVPSRFSGSGSGTDFTLTISNLQPEDFATYYCQQAKNFPLTFGGGTKVDIK | OD | 0.0477

Enquiry: Would you mind telling me what OD490 value was observed for ACVR2B D11 (monoclonal scFv-phage) (scFv, V domains shown) VH: MQLVQSGGGLVQPGRSLGLSCTASGFTFGDYAMSWVRQAPGKGLEWVGFIRSKAYGGTTEYAASVKGRLTISRDDSKSIAYLQMNSLRAEDTAVYYCARGHYGMDVWGQGTTVTVSS VL: DIQMTQSPSSLSASVGDRVTITCRASQNISNFLNWYQQKPGKAPKLLIYSASRLQRGVPSRFSGSGSGTDFTLTISSLQPEDFATYYCQQSYSTPYTFGQGTKLEIK ?
Return: 0.0429

Taken from patent US20150030595A1.
